IC50 values for the molecules below.
TESTED_SYSTEM: PI 3-kinase delta (Homo sapiens, UniProt O00329)
Sequence (O00329 whole entry): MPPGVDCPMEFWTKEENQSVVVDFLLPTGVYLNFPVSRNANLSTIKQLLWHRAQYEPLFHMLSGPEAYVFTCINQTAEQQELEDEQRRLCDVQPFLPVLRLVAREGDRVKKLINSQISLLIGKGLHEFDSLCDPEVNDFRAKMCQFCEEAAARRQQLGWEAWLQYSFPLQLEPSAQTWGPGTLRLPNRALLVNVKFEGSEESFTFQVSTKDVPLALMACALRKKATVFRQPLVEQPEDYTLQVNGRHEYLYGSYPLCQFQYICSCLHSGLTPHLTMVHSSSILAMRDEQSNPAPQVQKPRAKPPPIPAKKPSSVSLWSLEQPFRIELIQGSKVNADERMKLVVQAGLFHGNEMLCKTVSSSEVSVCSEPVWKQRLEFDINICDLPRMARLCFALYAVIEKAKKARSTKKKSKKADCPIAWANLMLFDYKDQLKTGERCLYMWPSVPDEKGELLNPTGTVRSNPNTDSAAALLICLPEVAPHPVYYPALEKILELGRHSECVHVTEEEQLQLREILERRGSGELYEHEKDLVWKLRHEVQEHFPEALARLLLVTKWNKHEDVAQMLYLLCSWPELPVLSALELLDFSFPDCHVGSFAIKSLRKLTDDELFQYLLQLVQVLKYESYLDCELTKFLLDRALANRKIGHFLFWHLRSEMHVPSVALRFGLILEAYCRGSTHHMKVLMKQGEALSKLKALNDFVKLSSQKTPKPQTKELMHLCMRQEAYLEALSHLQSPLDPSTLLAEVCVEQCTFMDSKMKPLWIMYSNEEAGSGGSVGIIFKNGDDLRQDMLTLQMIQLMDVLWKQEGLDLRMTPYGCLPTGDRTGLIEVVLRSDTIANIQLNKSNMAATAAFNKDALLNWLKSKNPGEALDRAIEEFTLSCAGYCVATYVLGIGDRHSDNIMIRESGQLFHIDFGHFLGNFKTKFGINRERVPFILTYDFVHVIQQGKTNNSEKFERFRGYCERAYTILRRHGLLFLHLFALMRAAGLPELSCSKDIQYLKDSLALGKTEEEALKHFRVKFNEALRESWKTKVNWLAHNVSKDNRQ
Sequence (Q63787 whole entry partner): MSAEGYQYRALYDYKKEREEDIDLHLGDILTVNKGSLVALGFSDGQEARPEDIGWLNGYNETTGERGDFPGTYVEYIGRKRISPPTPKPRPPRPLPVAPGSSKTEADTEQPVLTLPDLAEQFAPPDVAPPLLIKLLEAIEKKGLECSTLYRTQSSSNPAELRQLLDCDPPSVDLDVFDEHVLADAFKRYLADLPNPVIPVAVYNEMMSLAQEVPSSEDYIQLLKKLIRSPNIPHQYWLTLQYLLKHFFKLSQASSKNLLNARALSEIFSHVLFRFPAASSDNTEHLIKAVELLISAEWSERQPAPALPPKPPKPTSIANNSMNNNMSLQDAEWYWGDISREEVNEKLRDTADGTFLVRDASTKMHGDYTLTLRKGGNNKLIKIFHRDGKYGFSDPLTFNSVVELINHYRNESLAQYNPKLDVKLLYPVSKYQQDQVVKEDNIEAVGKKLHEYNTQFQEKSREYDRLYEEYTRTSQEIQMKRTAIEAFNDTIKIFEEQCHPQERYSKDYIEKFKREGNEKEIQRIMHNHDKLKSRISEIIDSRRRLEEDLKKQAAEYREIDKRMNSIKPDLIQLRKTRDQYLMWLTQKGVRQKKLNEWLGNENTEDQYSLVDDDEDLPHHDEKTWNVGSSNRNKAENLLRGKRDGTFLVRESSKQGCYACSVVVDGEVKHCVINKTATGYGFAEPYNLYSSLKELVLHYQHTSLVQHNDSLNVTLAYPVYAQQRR
ASSAY_SUMMARY: Cellular assay J1, p-Akt (S473) in Rat-1 cells, Surefire format
Format: cell-based
RECORDED_CONDITIONS: non-asterisked data: version J1 (Surefire format), Rat-1 cells; read-out: Assay J PI3Kδ IC50

MOLECULE	UNIT_ANNOTATION	RESULT_QUALIFIER	IC50
Cc1cc(-c2nc(-c3cc(S(=O)(=O)NC4CCNC(=O)C4)ccc3C)cnc2N)ccn1 (centres unmarked)	µM	>	10
Cc1ccc(S(=O)(=O)NCC(C)(C)O)cc1-c1cnc(N)c(-c2cnn(CCN(C)C)c2)n1	µM	>	10
Cc1ncc(-c2nc(-c3cc(S(=O)(=O)N[C@H]4CC[C@H](O)CC4)ccc3C)cnc2N)s1	µM	=	0.31
Cc1cc(F)c(S(=O)(=O)NCCC(C)(C)O)cc1-c1cnc(N)c(-n2cncn2)n1	µM	=	2.12
Cc1cc(-c2nc(-c3cc(S(=O)(=O)N[C@H]4CC[C@@H](O)CC4)ccc3C)cnc2N)ccn1	µM	=	3.52
Cc1ccc(S(=O)(=O)NCCC(C)(C)O)cc1-c1cnc(N)c(-c2c[nH]nc2C)n1	µM	>	10
Cc1ccc(S(=O)(=O)NCCC(C)(C)O)cc1-c1cnc(N)c(-c2ccc(N3CCCCC3)nc2)n1	µM	=	3.53
Cc1ccc(S(=O)(=O)NCCC(C)(C)O)cc1-c1cnc(N)c(-c2ccc(OC3CCOCC3)nc2)n1	µM	=	3.17

----------
TESTED_SYSTEM: PI 3-kinase alpha (Homo sapiens)
Sequence (P42336 whole entry): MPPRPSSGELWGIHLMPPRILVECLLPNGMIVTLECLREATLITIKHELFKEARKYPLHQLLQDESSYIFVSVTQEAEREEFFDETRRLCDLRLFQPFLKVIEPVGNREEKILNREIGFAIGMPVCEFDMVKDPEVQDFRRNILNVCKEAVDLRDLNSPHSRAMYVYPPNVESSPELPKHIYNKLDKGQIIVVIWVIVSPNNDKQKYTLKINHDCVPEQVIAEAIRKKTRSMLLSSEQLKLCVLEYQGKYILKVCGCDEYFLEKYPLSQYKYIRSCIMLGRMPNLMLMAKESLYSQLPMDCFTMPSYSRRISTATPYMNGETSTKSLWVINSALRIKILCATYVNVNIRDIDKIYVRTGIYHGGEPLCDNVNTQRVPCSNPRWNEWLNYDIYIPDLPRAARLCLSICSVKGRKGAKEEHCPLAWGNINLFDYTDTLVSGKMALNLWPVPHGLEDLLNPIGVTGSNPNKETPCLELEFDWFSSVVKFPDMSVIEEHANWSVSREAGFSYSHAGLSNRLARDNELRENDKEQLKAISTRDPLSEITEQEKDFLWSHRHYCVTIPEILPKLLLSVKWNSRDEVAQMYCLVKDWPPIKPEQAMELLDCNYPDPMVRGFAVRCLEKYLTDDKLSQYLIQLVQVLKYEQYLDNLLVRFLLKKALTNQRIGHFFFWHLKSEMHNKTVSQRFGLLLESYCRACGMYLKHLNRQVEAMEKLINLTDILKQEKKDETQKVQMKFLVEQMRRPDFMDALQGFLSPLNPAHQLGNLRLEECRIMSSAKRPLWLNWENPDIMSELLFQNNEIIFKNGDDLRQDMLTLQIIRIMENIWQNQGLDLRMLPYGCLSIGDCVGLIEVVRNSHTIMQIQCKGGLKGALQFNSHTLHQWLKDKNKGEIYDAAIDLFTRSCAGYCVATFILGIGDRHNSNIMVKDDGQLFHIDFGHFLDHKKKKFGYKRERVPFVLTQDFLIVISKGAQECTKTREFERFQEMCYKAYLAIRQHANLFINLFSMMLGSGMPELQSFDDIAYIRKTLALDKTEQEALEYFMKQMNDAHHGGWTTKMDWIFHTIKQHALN
Sequence (Q63787 whole entry partner): as the sequence (Q63787 whole entry partner) above
ASSAY_SUMMARY: Cellular assay H1, p-Akt (S473) in Rat-1 cells, Surefire format
Assay type: cell-based
RECORDED_CONDITIONS: non-asterisked data: version H1 (Surefire format), Rat-1 cells; read-out: Assay H PI3Kα IC50
pIC50: −log10 of the molar value.
pIC50 values for the molecules below.

ENTRY_SMILES	TESTED_SYSTEM	RESULT_QUALIFIER	pIC50
CCONS(=O)(=O)c1ccc(C)c(-c2cnc(N)c(-n3cncn3)n2)c1	PI 3-kinase alpha (Homo sapiens)	=	6.10
Cc1cnn(-c2nc(-c3cc(S(=O)(=O)N[C@H]4CC[C@H](O)CC4)ccc3C)cnc2N)c1	PI 3-kinase alpha (Homo sapiens)	=	5.83
Cc1ccc(S(=O)(=O)NCCC(C)(C)O)cc1-c1cnc(N)c(-c2cnn(CCN3CCOCC3)c2)n1	PI 3-kinase alpha (Homo sapiens)	<	5.00
Cc1ccc(S(=O)(=O)NCCC(C)(C)O)cc1-c1cnc(N)c(-c2ccc(N3CCCC3)nc2)n1	PI 3-kinase alpha (Homo sapiens)	=	5.55
Cc1noc(-c2nc(-c3cc(S(=O)(=O)N[C@H]4CC[C@H](O)CC4)ccc3C)cnc2N)n1	PI 3-kinase alpha (Homo sapiens)	=	5.50
Cc1ccc(S(=O)(=O)N2CC(CO)C2)cc1-c1cnc(N)c(-n2cncn2)n1	PI 3-kinase alpha (Homo sapiens)	=	5.21
COC1(C)CN(S(=O)(=O)c2ccc(C)c(-c3cnc(N)c(-c4cn(C)nc4C)n3)c2)C1	PI 3-kinase alpha (Homo sapiens)	=	5.34
Cc1ccc(S(=O)(=O)NCCC(C)(C)O)cc1-c1cnc(N)c(-c2c[nH]nc2C)n1	PI 3-kinase alpha (Homo sapiens)	=	5.36
Cc1ccc(S(=O)(=O)N[C@H]2CC[C@H](O)CC2)cc1-c1cnc(N)c(-c2ccnc(F)c2)n1	PI 3-kinase alpha (Homo sapiens)	=	5.81
Cc1ccc(S(=O)(=O)NOC(C)C)cc1-c1cnc(N)c(-n2cncn2)n1	PI 3-kinase alpha (Homo sapiens)	=	6.40
Cc1ccc(S(=O)(=O)N[C@H]2CC[C@H](O)CC2)cc1-c1cnc(N)c(-c2cccnc2)n1	PI 3-kinase alpha (Homo sapiens)	=	5.18
Cc1ccc(S(=O)(=O)NCC2(C)COC2)cc1-c1cnc(N)c(-c2cn(C)nc2C)n1	PI 3-kinase alpha (Homo sapiens)	=	5.55
CCc1noc(-c2nc(-c3cc(S(=O)(=O)N4CCC(CO)CC4)ccc3C)cnc2N)n1	PI 3-kinase alpha (Homo sapiens)	=	5.33
Cc1ccc(S(=O)(=O)NC2CCC(F)(F)CC2)cc1-c1cnc(N)c(-c2cnn(C)c2)n1	PI 3-kinase alpha (Homo sapiens)	=	5.77
Cc1ccc(S(=O)(=O)NCCC(C)(C)O)cc1-c1cnc(N)c(-c2cnn(Cc3ccccn3)c2)n1	PI 3-kinase alpha (Homo sapiens)	=	5.52
Cc1ccc(S(=O)(=O)NCCC(C)(C)O)cc1-c1cnc(N)c(-c2cnn(Cc3cccnc3)c2)n1	PI 3-kinase alpha (Homo sapiens)	=	5.18
CCOc1ccc(-c2nc(-c3cc(S(=O)(=O)NCCC(C)(C)O)ccc3C)cnc2N)cn1	PI 3-kinase alpha (Homo sapiens)	=	5.61
Cc1ccc(S(=O)(=O)NCC(C)(C)O)cc1-c1cnc(N)c(-c2cn(C)nn2)n1	PI 3-kinase alpha (Homo sapiens)	<	5.00
